Collected literature values of log10 of Ki measured for Adenosine receptor A2a (Homo sapiens, UniProt P29274).
Values reflect log10 of reported Ki (nM).

Study these solved cases before continuing.
1) Cc1cc(-c2sc(NC(=O)N3CCOC[C@@H]3C)nc2-c2cccc(C#N)c2)cc(C)n1: -0.17
2) N#Cc1c(-c2ccco2)nn2ccc(N3CCN(CCF)CC3)nc12: 1.35
3) Cc1cc(-c2c(-c3cccc(C#N)c3)nn3ccc(NC4CCS(=O)(=O)CC4)nc23)cc(Cl)n1: 1.03
4) Cc1cc(-c2c(-c3cccc(C#N)c3)nn3ccc(N4CCN(S(N)(=O)=O)CC4)nc23)cc(Cl)n1: 1.42
5) Cc1cc(-c2c(-c3cccc(C#N)c3)nn3ccc(OCC(C)(C)O)nc23)cc(Cl)n1: 0.08

Hi! Can you tell me log10 of Ki for each of these compounds?
1. Cc1cc(-c2sc(NC(=O)N3C[C@@H]4C[C@H]3CN4)nc2-c2cccc(C#N)c2)cc(Cl)n1
2. COCc1cc(-c2sc(NC(=O)N3CC4(COC4)C3)nc2-c2cccc(C#N)c2)cc(C)n1
3. Cc1cc(-c2c(-c3cccc(C#N)c3)nn3ccc(C(=O)NCC4(O)CCC4)nc23)cc(Cl)n1
4. Cc1cc(-c2c(-c3cccc(C#N)c3)nn3ccc(NC4CCN(CCO)CC4)nc23)cc(Cl)n1
5. CCn1nccc1-c1c(-c2cccc(C#N)c2)nn2ccc(NCC(C)(C)O)nc12
6. Cc1cc(-c2c(-c3cccc(C#N)c3)nn3ccc(C(=O)NC4(C#N)CCNCC4)nc23)cc(Cl)n1 (single isomer, unassigned)
7. Cc1cc(-c2sc(NC(=O)N3CC[C@@H](C#N)C3)nc2-c2cccc(C#N)c2)cc(C)n1
8. Cn1c(-n2nccn2)nc2c(N)nc(CCCCO)nc21

## Output
1: 0.33; 2: -0.68; 3: -0.52; 4: 0.15; 5: 1.12; 6: 1.25; 7: -0.42; 8: 1.72

Would you be so kind as to report log10 of Ki for each listed record?
1. Cc1cc(-c2c(-c3cccc(C#N)c3)nn3ccc(NC(=N)N)nc23)cc(Cl)n1
2. Cc1cc(-c2sc(NC(=O)N3CC[S+]([O-])CC3)nc2-c2cccc(C#N)c2)cc(C(F)(F)F)n1
3. Cc1cc(-c2sc(NC(=O)N3CCC(N)(C#N)CC3)nc2-c2cccc(C#N)c2)cc(C)n1
4. Cc1cc(-c2sc(NC(=O)N3CCN[C@@H](C)C3)nc2-c2cccc(C#N)c2)cc(Cl)n1
5. Cc1cc(-c2sc(NC(=O)N3CC4(CCOC4)C3)nc2-c2cccc(C#N)c2)cc(C)n1
6. Cc1cc(-c2c(-c3cccc(C#N)c3)nn3ccc(C(=O)N[C@H]4CC[C@H](N)C4)nc23)cc(Cl)n1
7. Cc1cc(-c2sc(NC(=O)N3CCN[C@H](C(=O)O)C3)nc2-c2cccc(C#N)c2)cc(Cl)n1

## Output
1: 0.15; 2: -0.42; 3: -0.70; 4: 0.01; 5: -0.57; 6: 0.45; 7: 1.06

Count: 2. Required value per item: log10 of Ki.
1. Cc1cc(-c2c(-c3cccc(C#N)c3)nn3ccc(C(=O)N[C@H]4COC[C@H]4O)nc23)cc(Cl)n1
2. Fc1cccc(-c2nn3ccc(Cl)nc3c2Br)c1

## Output
[-0.30, 2.76]
